target: Runt-related transcription factor 1 (Homo sapiens) + Core-binding factor subunit beta (Homo sapiens) (UniProt Q01196+Q13951); experiment: inhibitors of RUNX1 Runt–CBFb binding, primary screen, biochemical, FRET, Cerulean-Runt, Venus-CBFb, uHTS (AID 1496); conditions: Cerulean-Runt/Venus-CBFb FRET ratio 530/480, 1 h; at 20 µM; stronger effect = higher value;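 note: 0% = DMSO wells and 100% = excess unlabeled CBFb competitor control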
Sequence (Q01196 whole entry, looked up): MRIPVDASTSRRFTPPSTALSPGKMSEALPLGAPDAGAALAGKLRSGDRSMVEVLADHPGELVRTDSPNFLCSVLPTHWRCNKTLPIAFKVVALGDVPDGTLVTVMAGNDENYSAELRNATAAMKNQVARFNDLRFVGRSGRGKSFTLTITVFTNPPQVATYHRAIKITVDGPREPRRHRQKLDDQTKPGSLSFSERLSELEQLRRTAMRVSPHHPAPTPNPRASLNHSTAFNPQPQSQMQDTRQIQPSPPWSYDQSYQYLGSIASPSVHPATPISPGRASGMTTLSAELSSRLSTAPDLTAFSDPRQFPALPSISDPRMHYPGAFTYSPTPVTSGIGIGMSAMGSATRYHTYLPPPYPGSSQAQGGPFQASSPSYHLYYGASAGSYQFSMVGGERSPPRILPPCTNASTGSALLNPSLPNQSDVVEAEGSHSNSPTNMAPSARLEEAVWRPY
Sequence (Q13951 whole entry, looked up): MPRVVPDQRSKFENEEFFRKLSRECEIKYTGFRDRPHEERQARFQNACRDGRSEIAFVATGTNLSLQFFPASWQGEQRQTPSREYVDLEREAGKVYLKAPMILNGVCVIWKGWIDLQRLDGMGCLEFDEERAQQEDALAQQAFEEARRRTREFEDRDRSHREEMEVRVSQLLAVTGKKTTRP
Hit rate of the full screen: of about 220,000 compounds, about 990 (0.45%) were called active. The full list was thinned out, with actives kept by preference.
Entries and their inhibition values follow.

{"COMPOUND": "CSc1nnc(-c2ccncc2)n1CCCN1CCCC1=O", "inhibition": "-5.5% (inactive)"}
{"COMPOUND": "CCCC(=O)N1c2ccccc2NC2=C(C(=O)CCC2)C1c1ccc(F)cc1 (stereo not drawn)", "inhibition": "-0.4% (inactive)"}
{"COMPOUND": "CCOC(=O)c1sc(=S)n(-c2cccc(OC)c2)c1N", "inhibition": "34% (inactive)"}

Recorded values, source PubChem BioAssay AID1496.
